- Read-out: E-selectin (Homo sapiens)
- experimental.details: BSK_LPS_Eselectin: BioMAP Diversity Plus: LPS Assay for Eselectin Biomarker Activity (AID 2283077)
- condition.info: primary human HUVEC with PBMC; actives raise or lower the signal
Calls of active or inactive are those of the source. Rule for the calls: active = hit-call score of the fitted dose curve at least 0.9, where 1 is the maximum; inactive = score below 0.9.
Reply using exactly one outcome from yes (1) for active, no (0) for inactive

Use these answered entries as a reference point.
{"columns": ["compound", "answer.label"],
 "data": [
  ["CNC(=O)Oc1ccccc1OC(C)C", "no (0)"],
  ["O=C(O)CCCOc1ccc(Cl)cc1Cl", "no (0)"]
]}

Any idea what this test logged for CC(C)OC(=O)Nc1cccc(Cl)c1 ?
no (0)

Record request — test call for CC1(c2ccc(Oc3ccccc3)cc2)OC(=O)N(Nc2ccccc2)C1=O (stereo not drawn)
yes (1)

GET /call?item= C[C@H]1[C@H](c2ccc(Cl)cc2)SC(=O)N1C(=O)NC1CCCCC1 returns the recorded outcome of this test.
no (0)

Hey, what did the test say about O=C(Nc1ccccc1)Nc1cnns1 ?
no (0)

Status in this test for CCOC1Oc2ccc(OS(C)(=O)=O)cc2C1(C)C (stereo not drawn) ?
no (0)

Test call for this compound, please: Oc1cc(Cl)ccc1Oc1ccc(Cl)cc1Cl
yes (1)
